assay: Human HepG2 cell viability assay in 384 well format; type: toxicity, cell-based; design: dose 125 nL, time 70.5 hour; concentration not given beside the values; settings: HepG2 cells, read-out: Inhibition
Quick list: cytotoxicity at 70.5 h per entry.
endpointLabel: cytotoxicity at 70.5 h (%)

>>> print(df.to_string())
                                   compound  unitsymbol  numericreadout
0             Cc1nn(C)c2c(NCCn3cccn3)ncnc12           %            5.55
1  Clc1ccccc1CNC(Cn1cncn1)c1ccccc1 (stereo unspecified)           %            14.7
2      Cn1ccnc1CN1CCCN(C(=O)c2ccc(O)nc2)CC1           %           -4.72
3  COC(=O)[C@@H]1CN(C(=O)Nc2ccccc2)CCN1C(C)=O           %              -7
4  COC(=O)C1=C(C)N=C2SCC(=O)N2C1c1cn(C)nc1C (stereo unspecified)           %           -9.65
5  Cc1nc(C2CCCN2Cc2nc(C3CC3)no2)no1 (stereo unspecified)           %            -2.5

* * *

assay: Human HepG2 cell viability assay in 384 well format; assay type: toxicity, cell-based; design: dose 125 nL, time 70.5 hour; concentration not given beside the values; details: HepG2 cells, read-out: Inhibition
endpointLabel: cytotoxicity at 70.5 h (%)

>>> df
                                    molecule  unitsymbol  numericreadout
 0   CC(C)c1nc(CN2CCN(C(=O)CC3CCCCC3)CC2)no1           %            7.95
 1  O=C(COc1ccc2c(c1)CCC2)NS(=O)(=O)c1cccnc1           %           -10.3
 2  CC(C)NC(=O)C(C)S(=O)(=O)c1cc2c(cc1Cl)OCCO2 (configuration not stated)           %           -7.06
 3      COc1cc2nc(NCc3ccc(C)nc3)nc(N)c2cc1OC           %           -5.25
 4             O=C(NCc1csc(Br)c1)N1CCC(O)CC1           %           -4.25
 5  Cc1cc(C2CCCN2Cc2nc3c(cnn3C)c(=O)[nH]2)on1 (configuration not stated)           %           -8.83
 6  CN(Cc1ccco1)C(=O)C1CSCN1C(=O)c1cccnc1 (configuration not stated)           %           -15.1
 7                 O=C(O)Cn1ccc(=O)c2ccccc21           %           -14.9
 8    CCn1cc(CN2CCCN(C(=O)c3ccc(C)o3)CC2)cn1           %            20.7
 9    Cc1sc2c(C3CCNCC3)nc(Nc3cccc(F)c3)n2c1C           %            15.7
10  O=C1COc2cc(C(=O)NS(=O)(=O)c3ccc(F)c(F)c3)ccc2N1           %            10.9
11  CC1CN(Cc2cccc(CNC3CCCC3)c2)CCO1 (configuration not stated)           %            12.8
12  COc1ccc2c(c1)CC(NCc1cccc(NC(C)=O)c1)CC2 (configuration not stated)           %           -5.85
13  Cn1cc(CN2CC[C@@H]3[C@@H](CCC(=O)N3CCc3ccccc3)C2)cn1           %          -0.863
14   CC(C)Oc1ccc(CNC(=O)NCC(C)(C)C(N)=O)cc1F           %            -5.2
15             CCCSc1ncc(CN(C)CCN2CCCCC2)cn1           %           -2.41
16  Cc1ccc2c(n1)N(CC1CC1)CCN(C(=O)c1ccncc1F)C2           %           0.364
17  CCOCC(=O)N1CC[C@H]2OCC[C@@]2(COc2ncccc2F)C1           %             -12
18  O=C1CSC(c2ccc(O)cc2)c2c(n(C3CCOCC3)[nH]c2=O)N1 (configuration not stated)           %           -23.1
19         Cc1noc(C2CCN(c3oc(C)nc3C#N)CC2)n1           %            2.04
20  Cc1ccsc1C(=O)NC1CCS(=O)(=O)c2ccccc21 (configuration not stated)           %           -5.17
21  O=C(c1ccc(-c2ccsc2)nc1)N1CCCN(C2CCCCC2)CC1           %              17
22            O=C(NCCCn1cccn1)c1nnc2ccccc2n1           %             2.8
23   CCNC(=O)CN1CCN(c2ccnc3c(F)ccc(F)c23)CC1           %           -7.66
24  CNC(=O)C1CN(c2ccnc(C)n2)CCN(C2CCOCC2)C1 (configuration not stated)           %           -1.96
25  COC(=O)c1oc(CNC(C)(C)c2ccc3c(c2)OCO3)cc1C           %            19.5
26  O=C1[C@@H]2CCN(Cc3ccoc3)C[C@@H]2OCCN1c1ccccc1           %           -10.9
27  Cc1ncc(C(=O)NC2CCc3nccn3C2)c(C(C)C)n1 (configuration not stated)           %           -3.83
28  CC(Cn1ccnc1)NC(=O)C1(c2ccc3c(c2)OCCO3)CCCC1 (configuration not stated)           %            14.5
29  Cc1ccc(N2CCN(C(=O)C3CN(C)C(=O)N3)CC2=O)cc1 (configuration not stated)           %            3.04
30         CN1CCN(C2CCN(CCOc3ccccc3)CC2)C1=O           %           -14.7
31  Cc1cccc(Nc2nccnc2C2CCCN(CC(=O)N(C)C)C2)n1 (configuration not stated)           %           -7.55
32  Cc1nn(C)c(C)c1-c1ccc(=O)n(C(C)C(=O)NC(C)(C)C)n1 (configuration not stated)           %            3.31
33  O=C(CCC1CCN(C(=O)c2csnn2)CC1)NCc1cccc(Cl)c1           %            7.85
34     CN(c1nc(CSc2nnc(Cn3cncn3)o2)cs1)C1CC1           %           0.758
35  Cc1ccc(-n2nnc(CC(=O)N3CCN(C4CC4)CC3)c2C)cc1           %           -8.64
36  Cc1cc(CN(C)C(=O)NC2CCS(=O)(=O)C2)no1 (configuration not stated)           %           -15.8
37  CCOC[C@]12COC[C@H]1CN(Cc1ccc(F)c(F)c1)C2           %           -4.64
38  CCCN(CC)C(=O)c1cc(Cn2c(C)nc3ccccc32)[nH]n1           %           -4.58
39  CC(O)CN1CCN(C(=O)c2ccc(Br)o2)CC1 (configuration not stated)           %           -19.8
40  O=C(c1ccn(-c2cccc(F)c2)n1)N1CCCC(n2cccn2)C1 (configuration not stated)           %           -15.2
41  Cc1nc(NCC2CCOCC2)cc(C2CCN2S(C)(=O)=O)n1 (configuration not stated)           %           -1.73
42  CCOCC1CN(Cc2ccncc2)Cc2nn(C)cc21 (configuration not stated)           %           -7.15
43               CNC(=O)c1coc(-c2csc(C)n2)c1           %           -6.74
44  O=C(NCc1cc(-c2ccccc2)no1)NCC1CCCO1 (configuration not stated)           %          -0.266
45  CCN(C)C(=O)c1ccc2c(c1)C(c1nc[nH]n1)CN2S(C)(=O)=O (configuration not stated)           %           -8.39
46    O=C(c1c(O)cnc2ccccc12)N1CCN(CC(F)F)CC1           %           -3.97
